# credit: patent US5631401A

test target: Rat brain protein farnesyltransferase (Rattus norvegicus, UniProt Q02293+Q04631)
Construct: The enzyme was purified according to Reiss, Y., et al., Cell, 62: 81-88 (1990), utilizing steps one through three; from tissue; host or cells: rat brain
assay overview: In vitro inhibition of protein farnesyltransferase (biotin-lamin substrate, scintillation proximity assay)
Format: biochemical
conditions: 10 μM; compared to uninhibited control
quantity kind: inhibition at 10 µM (%)

A = O=C(O)[C@H]1[C@H](C(=O)N2CCCC(c3ccccc3)C2)[C@H](C(=O)O)[C@H]1C(=O)N1CCCC(c2ccccc2)C1 (relative stereo)
B = O=C(O)[C@H]1[C@H](C(=O)N(Cc2ccc(F)cc2)Cc2ccc(Oc3ccccc3)cc2)[C@H](C(=O)O)[C@H]1C(=O)N(Cc1ccc(F)cc1)Cc1ccc(Oc2ccccc2)cc1
C = CCCN(Cc1cccc(Oc2ccccc2)c1)C(=O)C1C(C(=O)O)C(C(=O)N(CCC)Cc2cccc(Oc3ccccc3)c2)C1C(=O)O (stereo not drawn)
-- ask Order the 3 compounds from highest to lowest inhibition at 10 µM. Write the labels out in the order the request specifies.
-- reply B, C, A
(B: 99%, C: 68%, A: 37%)
